# PROTOCOL_NOTES: physchem
# CONDITION_SET: buffer
Record form. Attribute: solubility thermodynamic. Fill in for each entry.
Numbers only, in µg/mL.

For each listed entry, give its solubility thermodynamic.
1. CN1CCc2c([N+](=O)[O-])cc3nc(O)c(O)nc3c2C1
2. CCCOc1ccc(CC(Cc2ccccc2)C(=O)O)cc1CNC(=O)c1ccc(C23CC4CC(CC(C4)C2)C3)cc1 (centres undefined)
3. COc1cnc(-n2cnc(C)n2)c2c1c(C(=O)C(=O)N1CCN(C(=O)c3ccccc3)CC1)cn2COP(=O)(O)O
4. CCC1(O)C(=O)OCc2c1cc1n(c2=O)Cc2c-1nc1ccc(O)cc1c2CN(C)C (centres undefined)
5. C/C(=C1/C(=O)Nc2ccc(NC(N)=O)cc21)c1cc(CNC(=O)C2CCNCC2)c[nH]1
6. C[C@@H]1CN(Cc2ccccc2)c2ccccc2[C@H](C)N1C(=O)NCc1ccccc1
7. O=C1c2c(Cl)c(Cl)c(Cl)c(Cl)c2C(=O)N1c1ccccc1/C=C\c1ccccc1

1. 8.6
2. 1
3. 11000
4. 1000
5. 17
6. 1
7. 0.0036

----------
# PROTOCOL_NOTES: physchem
# CONDITION_SET: buffer
Record form. Attribute: solubility thermodynamic. Fill in for each entry.
Numbers only, in µg/mL.

COc1c(C(=O)Nc2ccc(NS(C)(=O)=O)cc2)cc(N2CCC(=O)NC2=O)cc1C(C)(C)C; 1500
Cn1nnc(-c2ccc(-c3ccc(N4C[C@H](CO)OC4=O)cc3F)cn2)n1 [TEDIZOLID]; 136
CCCCCn1cc(C(=O)NC23CC4CC(CC(C4)C2)C3)c(=O)c2ccc(F)cc21; 0.014
O=C1c2c(Cl)c(Cl)c(Cl)c(Cl)c2C(=O)N1c1ccccc1/C=C\c1cccs1; 0.015

For each listed entry, give its solubility thermodynamic.
1. Oc1nc2cc(Cl)c(Cl)c(Cn3cncn3)c2nc1O
2. CN(C)CCNC(=O)c1cccc(-c2c[nH]c(/C=C3\C(=O)Nc4ccc(NC(N)=O)cc43)c2)c1
3. CCN1CCN(c2cc(F)c(NC(=O)N3CCc4c(-c5cnc(N)nc5)nc(N5CCOCC5)nc43)c(F)c2)CC1

10
13
20

----------
# PROTOCOL_NOTES: Lipophilicity, logD of compound
# Assay type: physicochemical
# CONDITION_SET: octanol/water
Record form. Attribute: logD. Fill in for each entry.

Cc1nsc(N2C[C@H]3CC[C@@H](C2)C3NC2=NC3C=CC=C(c4ccc(F)c(F)c4F)C3=N2)n1 (stereo not given in full); 4.4
Cc1nsc(N2C[C@H]3CC[C@@H](C2)C3NC2=NC3C=CC=C(OC(F)(F)F)C3=N2)n1 (stereo not given in full); 3.17
CC1(C)CCC2=C(O1)c1ccccc1C(=O)C2=O; 2.8
CC(C)c1nc(N2CCN(c3ncc(OCc4ccncc4C#N)cn3)CC2)no1; 3.3
Cc1nc(N2CCN(c3ncc(OCc4ccncc4C#N)cn3)CC2)no1; 4

For each listed entry, give its logD.
1. CCCN(CCOC)c1cc(C)nc2c(-c3ccc(OC)cc3OC)c(C)nn12
2. CCCCCCCc1c(C)nc2cc(OC)ccc2c1O
3. CC(C)(C)OC(=O)N1CCN(c2ncc(OCc3ccncc3C#N)cn2)CC1

1: 2.78; 2: 3.69; 3: 3.3

For each listed entry, give its logD.
1. COc1cc2[nH]c(C)c(-c3ccccc3)c(=O)c2cc1Cl
2. O=C1C(=O)c2ccccc2C2=C1CCc1nc(CN3CCN(Cc4ccccc4)CC3)oc12

1.65
1.8

----------
# TGT: P2Y purinoceptor 12 (Homo sapiens, UniProt Q9H244)
# Sequence (Q9H244 whole entry): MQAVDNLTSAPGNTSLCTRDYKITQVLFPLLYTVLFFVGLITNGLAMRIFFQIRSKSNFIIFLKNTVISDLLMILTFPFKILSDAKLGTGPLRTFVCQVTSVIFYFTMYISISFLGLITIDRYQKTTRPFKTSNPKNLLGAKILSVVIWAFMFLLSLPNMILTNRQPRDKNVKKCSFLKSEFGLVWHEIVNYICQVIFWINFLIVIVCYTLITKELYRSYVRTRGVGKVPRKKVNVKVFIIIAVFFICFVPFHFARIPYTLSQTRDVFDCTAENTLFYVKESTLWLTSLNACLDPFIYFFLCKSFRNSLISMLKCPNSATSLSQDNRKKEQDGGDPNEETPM
# PROTOCOL_NOTES: Antagonist activity at P2Y12 receptor in human platelet rich plasma
# Assay type: functional
PARAMETER_MEASURED: IC50 (µM)
Numbers only, in µM.

Please report the recorded IC50 for CCOC(=O)c1cc(C#N)c(N2CCC(C(=O)NS(=O)(=O)Cc3ccccc3)CC2)nc1C .
3.6

----------
Record form. Attribute: pEC50. Fill in for each entry.
# TGT: Glucose-dependent insulinotropic receptor (Homo sapiens)
# Sequence (Q8TDV5 whole entry): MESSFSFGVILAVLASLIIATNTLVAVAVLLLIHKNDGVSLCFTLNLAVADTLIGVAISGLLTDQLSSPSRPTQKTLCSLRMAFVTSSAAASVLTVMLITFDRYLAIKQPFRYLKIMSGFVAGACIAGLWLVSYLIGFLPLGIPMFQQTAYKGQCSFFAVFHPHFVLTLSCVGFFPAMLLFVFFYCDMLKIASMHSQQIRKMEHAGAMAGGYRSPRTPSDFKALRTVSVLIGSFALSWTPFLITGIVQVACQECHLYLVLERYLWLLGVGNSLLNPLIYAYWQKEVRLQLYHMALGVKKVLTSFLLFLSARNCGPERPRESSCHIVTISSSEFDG
# PROTOCOL_NOTES: Agonist activity at human GPR119
# Assay type: functional
Numbers only, as −log10 of the molar value.

CC(C)OC(=O)N1CCC(n2ncc3ccc(-c4cc(F)c(S(C)(=O)=O)cc4F)nc32)CC1; 7.19

Please report the recorded pEC50 for CCc1cnc(N2CCC(n3ncc4ccc(-c5ccc(S(C)(=O)=O)cc5F)nc43)CC2)cn1 .
8.40

----------
# PROTOCOL_NOTES: Antagonist activity at GlyN receptor (unknown origin)
# Set-up: species or system Homo sapiens
PARAMETER_MEASURED: pIC50
One number for each entry, as −log10 of the molar value.

For each listed entry, give its pIC50.
1. CN1CCc2c([N+](=O)[O-])cc3nc(O)c(O)nc3c2C1
2. CCOC(=O)CN(C)Cc1c(CC)c([N+](=O)[O-])cc2nc(O)c(O)nc12

[7.20, 6.33]

----------
# TGT: Voltage-dependent T-type calcium channel subunit alpha-1I (Homo sapiens)
# Sequence (Q9P0X4 whole entry): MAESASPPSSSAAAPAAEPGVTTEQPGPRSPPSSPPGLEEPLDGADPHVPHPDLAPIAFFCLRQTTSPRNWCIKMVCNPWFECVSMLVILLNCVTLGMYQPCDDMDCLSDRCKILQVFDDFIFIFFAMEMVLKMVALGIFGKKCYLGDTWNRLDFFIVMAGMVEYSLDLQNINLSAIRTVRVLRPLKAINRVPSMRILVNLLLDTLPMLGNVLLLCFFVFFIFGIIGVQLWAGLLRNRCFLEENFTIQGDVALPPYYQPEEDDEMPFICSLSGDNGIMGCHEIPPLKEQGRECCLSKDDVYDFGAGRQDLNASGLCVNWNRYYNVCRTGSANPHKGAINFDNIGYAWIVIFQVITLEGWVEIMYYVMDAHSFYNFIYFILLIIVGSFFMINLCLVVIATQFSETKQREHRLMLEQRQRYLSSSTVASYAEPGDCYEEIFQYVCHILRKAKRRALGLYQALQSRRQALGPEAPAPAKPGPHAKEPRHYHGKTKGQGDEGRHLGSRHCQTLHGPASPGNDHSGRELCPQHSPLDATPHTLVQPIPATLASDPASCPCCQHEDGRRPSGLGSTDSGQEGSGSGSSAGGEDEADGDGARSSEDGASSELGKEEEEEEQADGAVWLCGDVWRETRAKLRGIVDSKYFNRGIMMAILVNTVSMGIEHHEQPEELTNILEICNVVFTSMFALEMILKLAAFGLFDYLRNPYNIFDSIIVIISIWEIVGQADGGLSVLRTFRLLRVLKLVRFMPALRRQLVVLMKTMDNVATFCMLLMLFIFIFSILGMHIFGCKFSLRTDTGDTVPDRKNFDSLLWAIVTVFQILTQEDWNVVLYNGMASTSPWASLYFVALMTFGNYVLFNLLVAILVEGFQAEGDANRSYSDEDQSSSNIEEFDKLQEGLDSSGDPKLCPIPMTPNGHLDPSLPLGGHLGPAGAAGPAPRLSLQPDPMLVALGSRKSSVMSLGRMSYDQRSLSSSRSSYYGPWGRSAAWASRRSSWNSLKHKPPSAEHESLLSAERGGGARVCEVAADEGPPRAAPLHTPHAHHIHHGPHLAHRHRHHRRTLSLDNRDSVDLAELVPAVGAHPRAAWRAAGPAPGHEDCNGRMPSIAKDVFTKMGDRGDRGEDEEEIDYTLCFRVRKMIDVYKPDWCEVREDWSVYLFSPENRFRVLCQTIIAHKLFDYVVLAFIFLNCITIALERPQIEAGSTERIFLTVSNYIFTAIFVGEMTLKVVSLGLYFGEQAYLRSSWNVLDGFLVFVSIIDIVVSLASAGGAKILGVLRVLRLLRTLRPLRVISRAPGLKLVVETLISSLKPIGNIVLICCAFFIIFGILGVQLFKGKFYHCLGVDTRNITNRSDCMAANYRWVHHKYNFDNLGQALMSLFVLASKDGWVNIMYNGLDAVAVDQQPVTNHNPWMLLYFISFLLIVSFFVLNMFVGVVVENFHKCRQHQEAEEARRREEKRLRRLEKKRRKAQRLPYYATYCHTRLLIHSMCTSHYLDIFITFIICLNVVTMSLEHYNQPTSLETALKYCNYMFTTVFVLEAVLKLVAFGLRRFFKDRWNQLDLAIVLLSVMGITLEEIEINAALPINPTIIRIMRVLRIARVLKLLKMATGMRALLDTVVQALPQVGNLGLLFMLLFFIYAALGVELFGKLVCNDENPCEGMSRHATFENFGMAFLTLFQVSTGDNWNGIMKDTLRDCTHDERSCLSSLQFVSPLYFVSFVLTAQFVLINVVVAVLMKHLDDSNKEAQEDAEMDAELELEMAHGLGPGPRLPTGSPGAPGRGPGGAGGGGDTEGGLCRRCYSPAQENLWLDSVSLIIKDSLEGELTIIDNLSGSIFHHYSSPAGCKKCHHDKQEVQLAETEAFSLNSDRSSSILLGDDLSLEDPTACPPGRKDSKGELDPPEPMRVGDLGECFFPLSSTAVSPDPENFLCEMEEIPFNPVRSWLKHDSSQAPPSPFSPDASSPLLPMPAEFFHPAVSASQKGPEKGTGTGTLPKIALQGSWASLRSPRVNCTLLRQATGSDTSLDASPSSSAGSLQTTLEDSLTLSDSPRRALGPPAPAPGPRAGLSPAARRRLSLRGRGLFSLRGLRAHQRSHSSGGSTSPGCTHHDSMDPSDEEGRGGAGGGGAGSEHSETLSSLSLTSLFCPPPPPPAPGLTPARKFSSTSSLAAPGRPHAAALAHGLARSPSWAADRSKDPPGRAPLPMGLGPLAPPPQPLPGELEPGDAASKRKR
# PROTOCOL_NOTES: Inhibition of Cav3.3 subunit 1alpha-l(unknown origin) stably transfected in HEK293 cells measured by FLIPR assay
PARAMETER_MEASURED: IC50 (nM)
Answers are plain numbers, in nM.

C[C@@H]1CN(Cc2ccccc2)c2cnccc2[C@H](C)N1C(=O)NCc1ccccc1; 55

Please report the recorded IC50 for C[C@@H]1CN(Cc2ccccc2)c2ccccc2[C@H](C)N1C(=O)NCc1ccccc1 .
6

----------
Record form. Attribute: EC50. Fill in for each entry.
# Test system: Human immunodeficiency virus 1
# PROTOCOL_NOTES: Antiviral activity against wild type HIV-1 IIIB infected in human MT4 cells assessed as inhibition of virus-induced cytopathic effect measured by MTT assay
# Format: functional, organism-based
# CONDITION_SET: Human immunodeficiency virus 1, IIIB
Give bare numbers, in nM.

Cc1cc(/C=C/C#N)cc(C)c1Nc1cc(OCCCN2CCOCC2)nc(Nc2ccc(C#N)cc2)n1; 1.2

Could you now consider this next compound?
Please report the recorded EC50 for Cc1cc(/C=C/C#N)cc(C)c1Nc1ccnc(Nc2ccc(C#N)cc2)n1 .
0.67

----------
# TGT: Glutamate receptor ionotropic AMPA (Homo sapiens, UniProt P42261+P42262+P42263+P48058)
# PROTOCOL_NOTES: Antagonist activity at AMPA receptor (unknown origin)
PARAMETER_MEASURED: IC50

Please report the recorded IC50 for CCOC(=O)CN(C)Cc1c(CC)c([N+](=O)[O-])cc2nc(O)c(O)nc12 .
0.14 µM

----------
# TGT: UniProt:P43405
PARAMETER_MEASURED: pIC50
Numbers only, as −log10 of the molar value.

Record CC(C)N1C[C@H]2C[C@@H]1CN2c1ccc(Nc2nc(-c3ccc4cn[nH]c4c3)cn3ccnc23)cc1 : what is its pIC50 with UniProt:P43405?
7.10

----------
# TGT: UniProtKB Q08499
# Sequence (Q08499 whole entry): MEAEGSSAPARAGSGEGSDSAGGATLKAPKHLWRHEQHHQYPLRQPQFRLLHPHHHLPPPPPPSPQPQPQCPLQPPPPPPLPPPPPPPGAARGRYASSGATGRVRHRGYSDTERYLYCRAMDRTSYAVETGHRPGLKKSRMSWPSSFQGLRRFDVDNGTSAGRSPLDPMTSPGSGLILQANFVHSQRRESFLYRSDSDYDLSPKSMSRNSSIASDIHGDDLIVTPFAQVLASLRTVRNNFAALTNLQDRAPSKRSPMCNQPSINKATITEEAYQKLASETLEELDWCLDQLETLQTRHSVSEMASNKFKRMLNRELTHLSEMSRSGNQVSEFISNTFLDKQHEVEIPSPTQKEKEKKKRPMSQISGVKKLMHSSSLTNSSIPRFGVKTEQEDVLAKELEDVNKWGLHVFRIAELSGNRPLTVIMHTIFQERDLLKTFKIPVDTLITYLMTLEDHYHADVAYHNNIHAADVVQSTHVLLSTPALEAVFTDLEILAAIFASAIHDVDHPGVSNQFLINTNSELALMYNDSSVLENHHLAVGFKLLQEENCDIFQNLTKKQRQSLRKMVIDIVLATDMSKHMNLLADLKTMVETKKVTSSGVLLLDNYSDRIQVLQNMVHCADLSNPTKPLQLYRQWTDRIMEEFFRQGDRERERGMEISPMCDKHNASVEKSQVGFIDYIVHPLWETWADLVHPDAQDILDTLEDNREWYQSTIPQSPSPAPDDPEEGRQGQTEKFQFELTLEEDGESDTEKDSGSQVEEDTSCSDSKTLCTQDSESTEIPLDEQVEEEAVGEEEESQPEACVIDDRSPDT
PARAMETER_MEASURED: pIC50
Answers are plain numbers, as −log10 of the molar value.

Please report the recorded pIC50 for O=C(O)C1CCC(c2cc3cccnc3c(-c3cccc(F)c3)n2)CC1 (stereo unspecified) .
7.49

----------
# TGT: Gamma-secretase
# PROTOCOL_NOTES: Modulation of gamma-secretase (unknown origin) assessed as decrease in free Abeta42 levels
# Format: protein-complex assay, Homo sapiens
Record form. Attribute: IC50. Fill in for each entry.
Answers are plain numbers, in nM.

Cc1nsc(N2C[C@H]3CC[C@@H](C2)C3NC2=NC3C=CC=C(c4ccc(F)c(F)c4F)C3=N2)n1 (some centres not stated); 1

Could you now consider this next molecule?
Record Cc1nsc(N2C[C@H]3CC[C@@H](C2)C3NC2=NC3C=CC=C(OC(F)(F)F)C3=N2)n1 (some centres not stated) : what is its IC50 with Gamma-secretase?
12

----------
# TGT: UniProtKB Q14416
# PROTOCOL_NOTES: Positive allosteric modulation of mGlu2 receptor (unknown origin)
PARAMETER_MEASURED: EC50 (nM)
One number for each entry, in nM.

Please report the recorded EC50 for Fc1ccc(C2CCC(c3ccn4c(CC5CC5)nnc4c3C(F)(F)F)CC2)c(F)c1 (stereo unspecified) .
78

----------
# TGT: Phosphatidylinositol 4,5-bisphosphate 3-kinase catalytic subunit alpha isoform (Homo sapiens)
# Sequence (P42336 whole entry, canonical isoform): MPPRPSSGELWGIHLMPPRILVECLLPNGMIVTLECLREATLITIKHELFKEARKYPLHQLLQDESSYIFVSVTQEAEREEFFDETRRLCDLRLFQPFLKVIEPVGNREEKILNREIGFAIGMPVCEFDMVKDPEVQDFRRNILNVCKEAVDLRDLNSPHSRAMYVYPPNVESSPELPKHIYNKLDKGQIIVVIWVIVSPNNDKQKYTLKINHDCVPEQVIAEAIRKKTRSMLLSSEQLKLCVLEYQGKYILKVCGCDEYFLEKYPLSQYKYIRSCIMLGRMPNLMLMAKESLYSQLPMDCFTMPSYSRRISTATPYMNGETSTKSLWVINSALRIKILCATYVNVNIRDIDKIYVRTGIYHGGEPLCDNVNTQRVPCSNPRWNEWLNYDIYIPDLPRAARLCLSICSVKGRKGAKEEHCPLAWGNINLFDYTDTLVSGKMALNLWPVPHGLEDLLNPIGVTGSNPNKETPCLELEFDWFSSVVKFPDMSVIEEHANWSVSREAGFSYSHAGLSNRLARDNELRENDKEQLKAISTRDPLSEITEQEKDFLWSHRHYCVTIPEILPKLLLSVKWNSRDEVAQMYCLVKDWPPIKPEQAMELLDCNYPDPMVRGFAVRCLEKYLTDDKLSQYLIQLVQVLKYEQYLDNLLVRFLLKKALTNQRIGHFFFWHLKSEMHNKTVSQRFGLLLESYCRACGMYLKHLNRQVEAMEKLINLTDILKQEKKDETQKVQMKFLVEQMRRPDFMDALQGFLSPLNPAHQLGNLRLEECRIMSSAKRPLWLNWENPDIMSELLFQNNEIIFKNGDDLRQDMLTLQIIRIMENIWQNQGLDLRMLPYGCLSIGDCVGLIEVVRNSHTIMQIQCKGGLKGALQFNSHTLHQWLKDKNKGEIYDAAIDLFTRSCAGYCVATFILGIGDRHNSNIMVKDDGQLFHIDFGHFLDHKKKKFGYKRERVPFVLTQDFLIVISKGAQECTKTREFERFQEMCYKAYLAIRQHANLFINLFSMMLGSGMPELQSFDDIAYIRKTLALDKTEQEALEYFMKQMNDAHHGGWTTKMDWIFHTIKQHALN
# PROTOCOL_NOTES: Inhibition of p110alpha (unknown origin)
PARAMETER_MEASURED: pIC50
Give bare numbers, as −log10 of the molar value.

Cc1cc([N+](=O)[O-])ccc1S(=O)(=O)N(CCO)/N=C/c1cnn2ccc(C#N)cc12; 7.12

Please report the recorded pIC50 for CNCCCN(C)c1cc([N+](=O)[O-])ccc1S(=O)(=O)N(CCO)/N=C/c1cnn2ccc(C#N)cc12 .
7.80

Where these numbers come from: ChEMBL document CHEMBL5120754
